- assayOverview: in vitro
- conditionsUsed: human, microsomes
measurementName: CLint scaled at 1 h, 200 µM

>>> result("Cc1nc2cc(/C=C/C(=O)NO)ccc2c(=O)n1-c1ccccc1")
"< 6.1 mL/min/kg"
>>> result("Cc1nc2ccc(/C=C/CC(=O)NO)cc2c(=O)n1-c1ccccc1")
"< 6.1 mL/min/kg"

====

- testedSystem: Histone deacetylase 8 (Homo sapiens, UniProt Q9BY41)
- Sequence (Q9BY41 whole entry, the tested form may be a part): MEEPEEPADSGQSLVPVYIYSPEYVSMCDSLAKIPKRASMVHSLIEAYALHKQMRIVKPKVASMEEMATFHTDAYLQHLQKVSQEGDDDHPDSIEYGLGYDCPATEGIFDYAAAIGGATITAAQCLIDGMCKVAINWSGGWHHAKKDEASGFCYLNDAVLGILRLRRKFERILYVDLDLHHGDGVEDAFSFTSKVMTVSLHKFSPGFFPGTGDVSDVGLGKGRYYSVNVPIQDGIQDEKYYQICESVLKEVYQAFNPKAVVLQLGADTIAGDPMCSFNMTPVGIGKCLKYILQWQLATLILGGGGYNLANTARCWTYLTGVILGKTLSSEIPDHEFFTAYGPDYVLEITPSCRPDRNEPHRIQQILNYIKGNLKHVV
- assayOverview: Inhibition of human HDAC8 expressed in baculovirus expression system in Sf9 cells using RHKAcKAc (379 to 382 residues) fluorogenic peptide as substrate and measured after 2 hrs by fluorescence based analysis
pIC50: −log10 of the molar value.
Let's look at some compounds and their measured pIC50.
measurementName: pIC50

>>> quantitativeresult("N#Cc1ccc2c(=O)n(CCc3ccccc3)c(=O)n(Cc3ccc(C(=O)NO)cc3)c2c1")
6.89
>>> quantitativeresult("Cc1nc2cc(/C=C/C(=O)NO)ccc2c(=O)n1-c1ccccc1")
5.81
>>> quantitativeresult("O=C(NO)c1ccc(Cn2c(=O)[nH]c(=O)c3cc(F)ccc32)cc1")
6.65
>>> quantitativeresult("O=C(NO)c1ccc(Cn2c(=O)[nH]c(=O)c3cccc(Cl)c32)cc1")
6.86
>>> quantitativeresult("O=C(NO)c1ccc(/C=C/c2nc3ccccc3c(=O)[nH]2)cc1")
6.49
>>> quantitativeresult("O=C(NO)c1ccc(Cn2c(=O)[nH]c(=O)c3ccc(C(F)(F)F)cc32)cc1")
6.52
>>> quantitativeresult("Cn1c(CCC(=O)NO)nc2ccccc2c1=O")
4.98
>>> quantitativeresult("O=C(NO)c1ccc(Cn2c(=O)n(CCc3ccccc3)c(=O)c3ccccc32)c(F)c1")
6.59
>>> quantitativeresult("O=C(NO)c1ccc(Cn2c(=O)[nH]c(=O)c3cc(Br)ccc32)cc1")
6.43
>>> quantitativeresult("CCc1nc2ccc(/C=C/CC(=O)NO)cc2c(=O)n1-c1ccccc1")
5.43
>>> quantitativeresult("O=C(CCn1c(=O)n(CCc2ccccc2)c(=O)c2ccccc21)NO")
6.34
>>> quantitativeresult("O=C(NO)c1cccc(Cn2c(=O)[nH]c(=O)c3cccc(Cl)c32)c1")
6.02
>>> quantitativeresult("O=C(NO)c1ccc(-c2nc3ccccc3c(=O)[nH]2)cc1")
5.79
>>> quantitativeresult("O=C(NO)c1ccc(Cn2c(=O)[nH]c(=O)c3c(Cl)cccc32)cc1")
6.55
>>> quantitativeresult("Cc1nc2ccc(/C=C/CC(=O)NO)cc2c(=O)n1-c1ccccc1")
5.43
>>> quantitativeresult("O=C(NO)c1ccc(Cn2c(=O)[nH]c(=O)c3ccc(F)cc32)cc1")
6.81

Reference source for all entries: ChEMBL document CHEMBL5346972
